Please provide measured dH for the entries that follow.
# SYSTEM TESTED: T1, 14-3-3ζ (human, full-length) (human, UniProt P63104 1-245)
# T1 construct: N-terminal glycine retained after TEV cleavage of the His tag; 14-3-3ζ, human, ORF bought from GeneCopoeia, in Gateway pDEST17; full-length; Dimer in the crystal; the ITC stoichiometry counts on the 14-3-3 monomer; also called WT 14-3-3ζ; source: E. coli BL21 (DE3) pLysS, purified (Ni Sepharose, TEV cleavage, second Ni Sepharose pass); not shown: His tag, N-terminal, cleaved
# T1 sequence: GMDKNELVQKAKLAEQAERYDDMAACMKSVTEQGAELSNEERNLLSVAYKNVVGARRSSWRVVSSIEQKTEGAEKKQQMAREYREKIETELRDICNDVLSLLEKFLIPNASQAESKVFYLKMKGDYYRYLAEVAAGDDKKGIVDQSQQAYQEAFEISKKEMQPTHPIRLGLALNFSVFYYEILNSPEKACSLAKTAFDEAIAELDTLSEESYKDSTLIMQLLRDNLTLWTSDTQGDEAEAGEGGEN
# MEASUREMENT PROTOCOL: ITC; VP-ITC, 25°C; ~1-2 mM peptide titrated in 5 uL aliquots into ~100-200 uM 14-3-3ζ in the cell; 50 mM sodium phosphate, 100 mM NaCl, 1 mM DTT, pH 6.8; one-site model; in duplicate
# MEASUREMENT CONDITIONS: both partners purified
Square brackets hold non-standard residues; d marks the D form. Ends that are not written are not given here. pS = N[C@@H](COP(=O)(O)O)C(=O)O
Give bare numbers, in kcal/mol.

Recorded results for 6 binders are shown here.
BINDER	VALUE TYPE	RESULT VALUE
Ac-RKSA[pS]LP-NH2 (SMILES CC(=O)N[C@@H](CCCNC(=N)N)C(=O)N[C@@H](CCCCN)C(=O)N[C@@H](CO)C(=O)N[C@@H](C)C(=O)N[C@@H](COP(=O)(O)O)C(=O)N[C@@H](CC(C)C)C(=O)N1CCC[C@H]1C(N)=O, Chibby (Cby), human, residues 16-22 with S22P; also called Cby 7-mer S22P; 16RKSA(pS)LP22; source: synthetic peptide, bought: TUFTS University Core Facility) [pCby S22P 7-mer]	dH	-6.16
KTPPRKSA[pS]LS-NH2 (N-terminus assumed; SMILES CC(C)C[C@H](NC(=O)[C@H](COP(=O)(O)O)NC(=O)[C@H](C)NC(=O)[C@H](CO)NC(=O)[C@H](CCCCN)NC(=O)[C@H](CCCNC(=N)N)NC(=O)[C@@H]1CCCN1C(=O)[C@@H]1CCCN1C(=O)[C@@H](NC(=O)[C@@H](N)CCCCN)[C@@H](C)O)C(=O)N[C@@H](CO)C(N)=O, Chibby (Cby), human, residues 12-22; free NH2 end; source: synthetic peptide, bought: TUFTS University Core Facility) [pCby 11-mer]	dH	-3.26
KTPPRKSA[pS]LSNLHSLDR (Chibby (Cby), human, residues 12-29; free NH2 and COOH ends; also called Cby 18-mer WT; WT Cby 18-mer; source: synthetic peptide, bought: GenScript USA Inc) [pCby 18-mer]	dH	-4.35
KTPPRKSA[pS]LPNLHSLDR (Chibby (Cby), human, residues 12-29 with S22P; free NH2 and COOH ends; also called Cby 18-mer S22P; source: synthetic peptide, bought: TUFTS University Core Facility) [pCby S22P 18-mer]	dH	-8.03
KTPPRKSA[pS]LSNAHSLDR (Chibby (Cby), human, residues 12-29 with L24A; Not in the methods' list of peptides; also called Cby L24A 18-mer; source: synthetic peptide) [Cby 18-mer L24A (phosphorylated)]	dH	-1.56
KTPPRKSA[pS]LPNL (Chibby (Cby), human, residues 12-24 with S22P; free NH2 and COOH ends; also called Cby 13-mer S22P; source: synthetic peptide, bought: TUFTS University Core Facility) [pCby S22P 13-mer]	dH	-4.64

GET /values?readout=dH&item= Ac-RKSA[pS]LS-NH2 (SMILES CC(=O)N[C@@H](CCCNC(=N)N)C(=O)N[C@@H](CCCCN)C(=O)N[C@@H](CO)C(=O)N[C@@H](C)C(=O)N[C@@H](COP(=O)(O)O)C(=O)N[C@@H](CC(C)C)C(=O)N[C@@H](CO)C(N)=O, also called 16RKSA(pS)LS22; pCby WT 7-mer; source: synthetic peptide, bought: TUFTS University Core Facility) [pCby 7-mer]
-3.35

Data provenance: paper PMC4409382
